Tested on: OVCAR-5
Assay: NCI tumour cell line growth inhibition, 48 h
Activity calls are given as the source filed them. Rule as the data show it: active = GI50 up to about 1.1 µM and inactive = higher.
Outcome codes: yes = active, no = inactive

[
  {
    "molecule": "COc1cc(/C=C2\\CCC(C)C3=C2N=c2s/c(=C/c4ccc(Cl)cc4)c(=O)n2C3c2cc(OC)c(OC)c(OC)c2)cc(OC)c1OC (configuration not stated)",
    "target or system": "OVCAR-5",
    "group": "no"
  },
  {
    "molecule": "CC1(c2nc3ccccc3[nH]2)CCC(C(N)=O)C(C)(C)O1 (configuration not stated)",
    "target or system": "OVCAR-5",
    "group": "no"
  },
  {
    "molecule": "O=C(NCCCCCCCCCCCCNC(=O)Nc1cccc2ccccc12)Nc1cccc2ccccc12",
    "target or system": "OVCAR-5",
    "group": "no"
  },
  {
    "molecule": "COc1ccc2c(c1)CCC(CN1CCN(CCOC(c3ccc(F)cc3)c3ccc(F)cc3)CC1)=C2",
    "target or system": "OVCAR-5",
    "group": "no"
  },
  {
    "molecule": "CC(=N\\N)/C(C)=N/N=C(C)/C(C)=N/N",
    "target or system": "OVCAR-5",
    "group": "no"
  },
  {
    "molecule": "COc1ccccc1NCC(=O)Nn1c(C)nc2ccc(S(=O)(=O)Nc3ccccc3OC)cc2c1=O",
    "target or system": "OVCAR-5",
    "group": "no"
  },
  {
    "molecule": "NC(=O)CCC(Nc1c2ccccc2nc2ccccc12)C(=O)O (configuration not stated)",
    "target or system": "OVCAR-5",
    "group": "no"
  },
  {
    "molecule": "COc1ccc(C2C(C#N)=C(S)N(C3OC(CO)C(O)C(O)C3O)C(C)=C2C(C)=O)cc1 (configuration not stated)",
    "target or system": "OVCAR-5",
    "group": "no"
  },
  {
    "molecule": "c1ccc(C2C(=P(c3ccccc3)(c3ccccc3)c3ccccc3)P=PC2[P+](c2ccccc2)(c2ccccc2)c2ccccc2)cc1.c1ccc([B-](c2ccccc2)(c2ccccc2)c2ccccc2)cc1 (configuration not stated)",
    "target or system": "OVCAR-5",
    "group": "no"
  },
  {
    "molecule": "N#C/C(=C1\\OC(=N)C(c2ccc(Cl)cc2)=C1O)c1ccc(Cl)cc1",
    "target or system": "OVCAR-5",
    "group": "no"
  },
  {
    "molecule": "CC(=O)NC1C(OCc2ccccc2)OC(CO)C(O)C1OC(C)C(=O)NC(C)C(=O)N[C@@H](CCC(=O)OCCCNC1c2ccccc2Nc2cccc([N+](=O)[O-])c21)C(N)=O (some centres not stated)",
    "target or system": "OVCAR-5",
    "group": "yes"
  },
  {
    "molecule": "C/C=C1/C[C@@H](C)[C@@](C)(O)C(=O)OCC2=CC[N+]3([O-])CC[C@@H](OC1=O)[C@@H]23 (some centres not stated) [SENECIONINE N-OXIDE]",
    "target or system": "OVCAR-5",
    "group": "no"
  },
  {
    "molecule": "COc1ccc2nc3cc(Cl)ccc3c(NCCCNCc3cc(OC)c(OC)c(OC)c3)c2c1",
    "target or system": "OVCAR-5",
    "group": "no"
  },
  {
    "molecule": "O=C(NNc1ccccc1)c1ccc(Cl)c(Cl)c1",
    "target or system": "OVCAR-5",
    "group": "no"
  },
  {
    "molecule": "CCN(CCN(CC)C(=O)NC)C(=O)NC",
    "target or system": "OVCAR-5",
    "group": "no"
  },
  {
    "molecule": "Brc1sc(Br)c2c1[C@H](Br)C[C@@H]2Br",
    "target or system": "OVCAR-5",
    "group": "no"
  },
  {
    "molecule": "Cc1oc(N)c(S(=O)(=O)c2cc3ccccc3[n+]([O-])c2N)c1C",
    "target or system": "OVCAR-5",
    "group": "no"
  }
]
